src = ChEMBL document CHEMBL1201862

tested on: NCI-H522; assay: NCI tumour cell line growth inhibition, 48 h
Active and inactive are the calls of the source. No stated cut-off is given here; in the data, active = GI50 up to about 1.1 µM and inactive = higher.
GI50 values for the molecules below.

molecule=CC[C@H](NC1=C(Cl)C(=O)c2c(O)ccc(O)c2C1=O)C(=O)OC test_readout=GI50 result="3.53 µM (inactive)"

## Input Consider the molecule `Cc1cc(=O)oc2c(C)c3oc(CBr)c(Br)c3cc12` and give its recorded GI50.
## Output 14.7 µM (inactive)

## Input Supply recorded GI50 for CC(NC(=O)Cc1ccc(OP(=O)(OCc2ccc([N+](=O)[O-])o2)N(C)CCCCCl)cc1)c1ccc(OCC2CCCCC2)c(C(N)=O)c1 (configuration not stated) here.
## Output 2.25 µM (inactive)

## Input Indicate the recorded GI50 value for this molecule: C=CCN(N=O)C(=O)N(CCCC(NC(C)=O)C(=O)NCc1ccccc1)Cc1ccccc1 (configuration not stated)
## Output 21.4 µM (inactive)

## Input Supply reported GI50 belonging to this molecule: OC(/C(=N/c1ccccc1)c1ccccc1)c1ccccc1 (configuration not stated)
## Output 4.35 µM (inactive)

## Input State its GI50: CCN1C(=S)n2cccc2C1CC(=O)c1ccc(Cl)cc1 (configuration not stated)
## Output 15.5 µM (inactive)

## Input Let me know recorded GI50 for CC(Oc1ccc2c(=O)cc(-c3ccccc3)oc2c1)C(=O)O (configuration not stated) , thanks.
## Output > 100 µM (inactive)

====

tested on: Malme-3M; experiment: NCI tumour cell line growth inhibition, 48 h
The source made the active and inactive calls. Rule as the data show it: active = GI50 up to about 1.1 µM and inactive = higher. *1 amine or outer side, *2 acyl side, *3 side chain or, on linkers, in order; H or OH if unused. Where a SMILES comes first, the peptide text is derived from it. Bridges are numbered along the chain shown (N, C = ends). [ ]: non-standard residue; d: D form. ξ: configuration not given here. X10 = CCC(C)C(N[*:1])C(O)CC(=O)O[C@H](C(=O)C(C)C(=O)[*:2])C(C)C; NMeY = CN[C@@H](Cc1ccc(O)cc1)C(=O)O; ξNMeL = CNC(CC(C)C)C(=O)O; ξT = CC(O)C(N)C(=O)O
Entry note: the call must match one of active, inactive

compound=C=C1C(=O)[C@]23[C@H](O)[C@H]1CC[C@H]2[C@@]12CO[C@@]3(O)C[C@@H]1C(C)(C)CC[C@@H]2O target_entity=Malme-3M label_class=inactive

## Input Field: outcome | Entry: `CN(C)CCn1c(=O)c2ccc3c4c(nn3CCN(C)C)c3cc([N+](=O)[O-])ccc3n(c1=O)c24`
## Output active

## Input What did the test return for CC(C)(C)c1cc(C2=NNC(c3ccccc3)C2)cc(C(C)(C)C)c1O (stereo not given) ?
## Output inactive

## Input What call does the record list for `COc1ccc(C(=O)c2ccc(-n3cc(/C=C/[N+](=O)[O-])c4ccccc43)cc2)cc1` ?
## Output inactive

## Input Recorded call for CCC(C)C1NC(=O)C(NC(=O)C(CC(C)C)N(C)C(=O)[C@@H]2CCCN2)C(C)OC(=O)[C@H](Cc2ccc(OC)cc2)N(C)C(=O)[C@@H]2CCCN2C(=O)[C@H](CC(C)C)NC(=O)C(C)C(=O)[C@H](C(C)C)OC(=O)CC1O (stereo not given in full) (H-P[ξNMeL][ξT][X10]LP[NMeY](Me); ester 3-C) ?
## Output active
